- Test system: HCC 2998
- Protocol Notes: NCI tumour cell line growth inhibition, 48 h
The source made the active and inactive calls. Rule as the data show it: active = GI50 up to about 1.1 µM and inactive = higher. *1 amine or outer side, *2 acyl side, *3 side chain or, on linkers, in order; H or OH if unused. Where a SMILES comes first, the peptide text is derived from it. Bridges are numbered along the chain shown (N, C = ends). [ ]: non-standard residue; d: D form. The star is where a group is joined. X36 = O=C(C(CCCCNO[*:3])N[*:1])[*:2]; Fmoc = O=C(OCC1c2ccccc2-c2ccccc21)*
Just give me one of these, please: true (1) = active, false (0) = inactive

The following molecules have reported results that may help.
1) O=C1CCC(=O)N1Cc1ccccc1/N=[N+](\[O-])c1ccccc1CN1C(=O)CCC1=O	false (0)
2) O=C(O)Cc1ccc(Oc2nc3ccccc3nc2-c2ccccc2)cc1	false (0)

INPUT: Call for entry COC1CC(OC2CCC3(C)C(CCC45CCC(C6=CC(=O)OC6)C(C)(CCC43)C5=O)C2)OC(C)C1O (stereo not drawn) :
OUTPUT: false (0)

INPUT: Check the results log: what was the call for N/N=C(/C(=O)Nc1cccc(Cl)c1)C(C(=O)c1ccc(O)cc1O)C1OC(=O)c2ccccc21 (stereo not drawn) ?
OUTPUT: false (0)

INPUT: Any idea what this test logged for `CCOC(=O)C1(C(=O)OCC)OC(C)=NC1(C(=O)OC)C(=O)OC` ?
OUTPUT: false (0)

INPUT: For CCCCOP1(=O)CC(C)=C(Cl)C(C)(OC)C1 (stereo not drawn) , which call appears in the assay record?
OUTPUT: false (0)

INPUT: What is the recorded call for this molecule in the test? Cc1cc(O)c2c(c1)C(C1OC(CO)C(O)C(O)C1O)c1cc(O)cc(O)c1C2=O (stereo not drawn)
OUTPUT: false (0)

INPUT: Hi team, can someone confirm the assay call for CC(=O)Nc1ccc2c3c(cc(O)c2c1)N(C(=O)CCCCC(=O)N1CC(CCl)c2c1cc(O)c1cc(NC(C)=O)ccc21)CC3CCl (stereo not drawn) ?
OUTPUT: true (1)

INPUT: GET /call?item= `CCOC(=O)C(=CNc1ccc(F)c(F)c1)C(=O)OCC` returns the recorded outcome of this test.
OUTPUT: false (0)

INPUT: Look up the recorded call for Cc1ccc2c(c1C)C(=O)C1(C2)Cc2ccc3c(c2C1=O)CCC3 (stereo not drawn) in this test.
OUTPUT: false (0)

INPUT: Per the records of this test, what outcome belongs to NC(=O)CNC(=O)C1CCCN1C(=O)C1CCCCNOC(=O)CCC(NC(=O)OCC2c3ccccc3-c3ccccc32)C(=O)NC(Cc2c[nH]c3ccccc23)C(=O)N1 (stereo not drawn) (Fmoc-EW[X36]PG-NH2; ester 1-3; configuration not given here) ?
OUTPUT: false (0)

INPUT: Please indicate how the test categorized `Cc1ccc(OCCn2cc(Nc3ccccc3)c(=O)[nH]c2=O)cc1` .
OUTPUT: false (0)

INPUT: Lab log entry: NC(=O)C(N)CC12CC3CC(CC(C3)C1)C2 (stereo not drawn) — outcome as called in the assay?
OUTPUT: false (0)

The measured values listed here are drawn from ChEMBL document CHEMBL1201862.
